# credit: patent US9301923B2

Please go through the items and note down their FVII inhib %.
Tested on: Factor VII
assay-method-text: Factor VII activity assay, in vivo liver delivery of FVII siRNA LNP
Design: species or system mouse
applied-conditions: dose 3 mg/kg siRNA i.v., ~48 h; lipid/no neutral lipid/CHOL/AVANTI 880150P 50/0/46/4, N/P 3.43
Answers are plain numbers, in %.

Some entries whose results are on file:
- compound: "CCCCC/C=C\\C/C=C\\CCCCCCCCOC[C@@H](CN1CCCCC1)OCCOCCO[C@H]1CC[C@@]2(C)C(=CCC3C2CC[C@@]2(C)C3CC[C@@H]2[C@H](C)CCCC(C)C)C1 (some centres unmarked) [E0034]"
  target-system: "Factor VII"
  FVII inhib % / %: 88.1
- compound: "CCCCC/C=C\\C/C=C\\CCCCCCCCOCC(Cn1ccnc1)OCCOCCO[C@H]1CC[C@@]2(C)C(=CCC3C2CC[C@@]2(C)C3CC[C@@H]2[C@H](C)CCCC(C)C)C1 (some centres unmarked) [E0051]"
  target-system: "Factor VII"
  FVII inhib % / %: 77.5
- compound: "CCCCC/C=C\\C/C=C\\CCCCCCCCOCC(CN1CCCCC1)OC(=O)COCC(=O)O[C@H]1CC[C@@]2(C)C(=CCC3C2CC[C@@]2(C)C3CC[C@@H]2[C@H](C)CCCC(C)C)C1 (some centres unmarked) [E0047]"
  target-system: "Factor VII"
  FVII inhib % / %: "−3.4"
- compound: "CCCCC/C=C\\C/C=C\\CCCCCCCCOCC(CN1Cc2ccccc2C1)OCCOCCO[C@H]1CC[C@@]2(C)C(=CCC3C2CC[C@@]2(C)C3CC[C@@H]2[C@H](C)CCCC(C)C)C1 (some centres unmarked) [E0029]"
  target-system: "Factor VII"
  FVII inhib % / %: "−19.1"

Now consider a different compound.
Return reported FVII inhib %. Input compound: CCCCC/C=C\C/C=C\CCCCCCCCOCC(CN1CCCC2CCCCC21)OCCOCCO[C@H]1CC[C@@]2(C)C(=CCC3C2CC[C@@]2(C)C3CC[C@@H]2[C@H](C)CCCC(C)C)C1 (some centres unmarked) [E0010]
65.1
